# SYSTEM TESTED: T1, human IL-8 (human, UniProt P10145 28-99, limits assumed)
# T1 sequence (looked up): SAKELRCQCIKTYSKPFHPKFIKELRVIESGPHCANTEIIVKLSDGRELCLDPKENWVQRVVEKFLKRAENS
# TEST METHOD NOTES: cell-based or functional assay
QUANTITY KIND: FLIPR IC50

Query: Item 17D1.1D2 (antibody, IgG2c, V domains shown) VH: EVQLQQSGPELVKPGASVKISCKASGYTFTDYYMNWLRQSHGKSLEWIGDINPNNGGTNYNQKFKNKATLTVDKSSSTAYMELRSLTSEDSAVFYCAGLGRIFDYWGQGTTLTVSS VL: ENVLTQSPAIMSAFPGEKVTMTCRASSSVSSTYLHWYQQKSGASPKLWIYSTSDLASGVPARFSGSGSGTSYSLTISSVEAEDAATYYCQQFSGYPWTFGGGTKLEIK : provide FLIPR IC50
Result: 2.5 µg/mL

Query: Item 2X810.3 (antibody, IgG1, V domains shown) VH: QIQLQQSGPEVVKPGASVKISCKASGYIFTDNYIDWVQQRPGQGLEWIGWIFPGSGNTKYNEKFKGKATLTVDTFSSTAYMQLSSLTSEDTAVYFCAREIDYDYDGFFDVWGAGTTVTVSS VL: DIVMTPSHTFMSTSVGDRVIITSKASQDVGSAVAWYQQKPGQSPTLLIYWASTRHTGVPDRFTGSGSGTDFTLTISNLQSEDLADYFCQQYSTYPLTFGAGTKLELK : provide FLIPR IC50
Result: > 67 µg/mL

Query: Item 2X352.3 (antibody, IgG1, V domains shown) VH: QIQLVQSGPELKKPGETVKISCKASGYTLTYYGIHWVTQTPGKGLNWMGWINTNTGEPTYVEEFKGRFAFSLETSASTAYLQITDLKNEDTATYFCAKATYDGYSDYWGQGTTLTVSS VL: DIQMTQSPASLSVSVGESVTITCRASENIYSNLAWYQQKQGKSPQLLVYDATNLAHGVPSRFSGSGSGTQFSLRINSLQSEDFGSYYCQHFWGTPLTFGAGTRLELK : provide FLIPR IC50
Result: > 67 µg/mL
